Target: T1, 4H3277-bA
T1 chain: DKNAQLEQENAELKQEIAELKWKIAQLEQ
Assay: two-hybrid library CCNG1;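 note: natural log of median RNA to DNA barcode read ratio; higher means stronger binding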
Measured attribute: interaction score
Answer as a number with no unit attached.

For reference, reported interaction score for DKIAQLEQKNAELKQEIAELEWKNAQLEQ [4H2503-bA] stands at -0.659

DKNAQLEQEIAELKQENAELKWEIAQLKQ [4H3162-bA] yielded interaction score of -0.654

The recorded interaction score for entry DKIAQLEQKNAELEQKIAELKWEIAQLEQ [4H2473-bA] equals -1.53

// interaction score lookup, binder = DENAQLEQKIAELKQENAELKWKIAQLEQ [4H1373-bA] , result: -0.594
